Experiment: Irreversible inhibition of HCV1b NS5B delta21 polymerase by radiolabeled nucleotide incorporation assay
Set-up: species or system Hepatitis C virus subtype 1b
I'd be grateful if you could share measured IC50 for these entries.
Express the result in nM but write the number alone.

Task item: Tell us which IC50 value is on record for `Cc1ccc2nc(Cl)c(Cn3c(C(=O)O)c(-c4ccc[nH]c4=O)c4cc(C)c(F)cc43)cc2c1`
Reply: 20

Task item: Answer with the recorded IC50 of `Cc1cc2c(-c3ccc[nH]c3=O)c(C(=O)O)n(Cc3cc4ccc(F)cc4nc3Cl)c2cc1F` only.
Reply: 20

Task item: State its IC50: `Cc1cc2c(-c3ccc[nH]c3=O)c(C(=O)O)n(Cc3c(Cl)nc4ccccc4c3Cl)c2cc1F`
Reply: 60

Task item: Consider the compound `Cc1cc2c(-c3ccc[nH]c3=O)c(C(=O)O)n(Cc3cc(F)cnc3Cl)c2cc1F` and give its recorded IC50.
Reply: 12

Task item: Quick one: give measured IC50 for `Cc1cc2c(-c3ccc[nH]c3=O)c(C(=O)O)n(Cc3cc4cc(F)c(F)cc4nc3Cl)c2cc1F`
Reply: 10

Task item: For `Cc1cc2c(-c3ccc[nH]c3=O)c(C(=O)O)n(Cc3cc4ccccc4nc3Cl)c2cc1F` , write its IC50.
Reply: 13

Task item: For `Cc1cc2c(-c3ccc[nH]c3=O)c(C(=O)O)n(Cc3ccc(Cl)nc3)c2cc1F` , write its IC50.
Reply: 9

Task item: Determine from records and report IC50 for `Cc1cc2c(-c3ccc[nH]c3=O)c(C(=O)O)n(Cc3cnc4ccccc4c3Cl)c2cc1F`
Reply: 6

Task item: Write down IC50 measured for item `COc1ccc2cc(Cn3c(C(=O)O)c(-c4ccc[nH]c4=O)c4cc(C)c(F)cc43)c(Cl)nc2c1`
Reply: 6

* * *

Test: Clearance in cynomolgus monkey
Assay type: ADME, organism-based, Macaca fascicularis
Settings: in vivo
quantity.kind: clearance (mL/min/kg)
Could you give me the number in mL/min/kg? Just the number is fine.

Task item: Read the entry `Cc1cc2c(-c3ccc[nH]c3=O)c(C(=O)[O-])n(Cc3cc4ccccc4nc3Cl)c2cc1F.[Na+]` and write its reported clearance.
Reply: 3.5

* * *

Experiment: Volume of distribution at steady state in beagle dog
Format: ADME, organism-based, Canis lupus familiaris
Settings: in vivo, read-out: Vdss
quantity.kind: Vd (L/kg)
Unit L/kg implied. Number only.

Task item: Identify the reported Vd for the following entry. `Cc1cc2c(-c3ccc[nH]c3=O)c(C(=O)[O-])n(Cc3cc4ccccc4nc3Cl)c2cc1F.[Na+]`
Reply: 1.7

* * *

Experiment: Cmax in fed cynomolgus monkey at 100 mg/kg, po
Type: ADME, organism-based, Macaca fascicularis
Parameters: dose 100 mg/kg, route oral
Conditions: in vivo
quantity.kind: Cmax (nM)
Write down the numeric answer in nM and omit the unit.

Task item: Supply measured Cmax of `Cc1cc2c(-c3ccc[nH]c3=O)c(C(=O)O)n(Cc3cc4ccccc4nc3Cl)c2cc1F` in your reply.
Reply: 2000

* * *

Experiment: AUC in beagle dog at 3 mg/kg, po
Assay type: ADME, organism-based, Canis lupus familiaris
Set-up: dose 3 mg/kg, route oral
Conditions: plasma
quantity.kind: AUC (µM·h)
Give just the number in µM·h; leave the unit off.

Task item: Give me measured AUC, please, for this compound: `Cc1cc2c(-c3ccc[nH]c3=O)c(C(=O)[O-])n(Cc3cc4ccccc4nc3Cl)c2cc1F.[Na+]`
Reply: 3.2

* * *

Test: Cmax in fed Sprague-Dawley rat at 100 mg/kg, po
Format: ADME, organism-based
Set-up: dose 100 mg/kg, route oral
Conditions: in vivo
quantity.kind: Cmax (µM)
All answers are understood in µM, so give the number only.

Task item: Hello, please tell me recorded Cmax for this one: `Cc1cc2c(-c3ccc[nH]c3=O)c(C(=O)O)n(Cc3cc4ccccc4nc3Cl)c2cc1F`
Reply: 32

* * *

Molecular target: Cytochrome P450 2C9 (Homo sapiens, UniProt P11712)
Sequence (P11712 whole entry): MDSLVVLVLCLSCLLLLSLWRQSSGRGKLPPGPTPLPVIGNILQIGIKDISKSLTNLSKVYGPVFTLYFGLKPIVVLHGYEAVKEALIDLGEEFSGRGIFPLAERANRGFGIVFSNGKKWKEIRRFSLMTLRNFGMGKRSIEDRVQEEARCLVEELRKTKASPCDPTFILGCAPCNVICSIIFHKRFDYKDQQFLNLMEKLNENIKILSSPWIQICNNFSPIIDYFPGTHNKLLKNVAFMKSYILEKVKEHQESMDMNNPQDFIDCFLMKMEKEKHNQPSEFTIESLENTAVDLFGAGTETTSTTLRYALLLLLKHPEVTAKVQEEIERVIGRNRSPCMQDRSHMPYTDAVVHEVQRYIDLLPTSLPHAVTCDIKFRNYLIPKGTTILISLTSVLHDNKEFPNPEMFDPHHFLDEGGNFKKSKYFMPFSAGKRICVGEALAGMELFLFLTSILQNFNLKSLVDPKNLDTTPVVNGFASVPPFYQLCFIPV
Test: Inhibition of CYP2C9 in human liver microsomes measured after compound pre-incubation
Format: ADME
pIC50: −log10 of the molar value.
quantity.kind: pIC50

Task item: Query pIC50 for `Cc1cc2c(-c3ccc[nH]c3=O)c(C(=O)O)n(Cc3cc4ccccc4nc3Cl)c2cc1F`
Reply: < 4.30

* * *

Assay: Plasma protein binding in human
Format: ADME, cell-free
Conditions: read-out: PPB (converted)
quantity.kind: fraction unbound
Please reply with the number alone, leaving off any unit.

Task item: Please list fraction unbound recorded for the compound `Cc1cc2c(-c3ccc[nH]c3=O)c(C(=O)[O-])n(Cc3cc4ccccc4nc3Cl)c2cc1F.[Na+]`
Reply: 0.003

* * *

Assay: Oral bioavailability in beagle dog at 3 mg/kg
Format: ADME, organism-based, Canis lupus familiaris
Details: in vivo
quantity.kind: bioavailability (%)
Use % as the unit, but write only the number.

Task item: Consider the molecule `Cc1cc2c(-c3ccc[nH]c3=O)c(C(=O)[O-])n(Cc3cc4ccccc4nc3Cl)c2cc1F.[Na+]` . State its measured bioavailability.
Reply: 38

* * *

Target: Cytochrome P450 2C9 (Homo sapiens, UniProt P11712)
Test: Inhibition of CYP2C9 in human liver microsomes measured after concurrent incubation
Format: ADME
pIC50: −log10 of the molar value.
quantity.kind: pIC50

Task item: Quickly give me recorded pIC50 for `Cc1cc2c(-c3ccc[nH]c3=O)c(C(=O)O)n(Cc3cc4ccccc4nc3Cl)c2cc1F`
Reply: < 4.30

* * *

Experiment: AUC in fed cynomolgus monkey at 100 mg/kg, po
Type: ADME, organism-based, Macaca fascicularis
Design: dose 100 mg/kg, route oral
Conditions: plasma
quantity.kind: AUC (µM·h)
Give a bare numeral; the unit µM·h is implied.

Task item: Entry `Cc1cc2c(-c3ccc[nH]c3=O)c(C(=O)O)n(Cc3cc4ccccc4nc3Cl)c2cc1F` needs its AUC filled in; supply it.
Reply: 17

* * *

Assay: Plasma protein binding in Sprague-Dawley rat
Assay type: ADME, cell-free
Details: read-out: PPB (converted)
quantity.kind: fraction unbound

Task item: Entry `Cc1cc2c(-c3ccc[nH]c3=O)c(C(=O)[O-])n(Cc3cc4ccccc4nc3Cl)c2cc1F.[Na+]` needs its fraction unbound filled in; supply it.
Reply: 0.002

* * *

Assay: Drug excretion in cynomolgus monkey bile assessed as parent compound administered as single oral dose
Format: ADME, Macaca fascicularis
Details: read-out: Drug excretion
quantity.kind: dose excreted (%)
Could you give me the number in %? Just the number is fine.

Task item: Hello, please tell me recorded dose excreted for this one: `Cc1cc2c(-c3ccc[nH]c3=O)c(C(=O)O)n(Cc3cc4ccccc4nc3Cl)c2cc1F`
Reply: 81

* * *

Molecular target: Cytochrome P450 2C8 (Homo sapiens)
Sequence (P10632 whole entry): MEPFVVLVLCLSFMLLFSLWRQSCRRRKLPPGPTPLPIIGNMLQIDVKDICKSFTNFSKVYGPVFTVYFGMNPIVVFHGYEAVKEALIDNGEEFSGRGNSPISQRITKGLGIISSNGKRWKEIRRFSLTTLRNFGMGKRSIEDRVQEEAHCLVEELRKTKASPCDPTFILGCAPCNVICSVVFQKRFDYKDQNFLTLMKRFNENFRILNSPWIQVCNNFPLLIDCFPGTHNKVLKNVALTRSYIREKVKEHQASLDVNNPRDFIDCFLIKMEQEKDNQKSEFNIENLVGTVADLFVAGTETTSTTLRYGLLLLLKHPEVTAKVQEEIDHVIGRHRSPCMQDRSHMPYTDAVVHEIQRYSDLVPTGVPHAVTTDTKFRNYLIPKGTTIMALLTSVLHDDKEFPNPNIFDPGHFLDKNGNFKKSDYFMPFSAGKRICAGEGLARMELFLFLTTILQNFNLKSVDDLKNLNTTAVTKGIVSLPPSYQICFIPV
Test: Inhibition of CYP2C8 in human liver microsomes measured after concurrent incubation
Format: ADME
quantity.kind: IC50 (µM)
Number in µM, nothing else.

Task item: Please indicate IC50 recorded for `Cc1cc2c(-c3ccc[nH]c3=O)c(C(=O)O)n(Cc3cc4ccccc4nc3Cl)c2cc1F`
Reply: 21

* * *

Experiment: Volume of distribution at steady state in Sprague-Dawley rat
Type: ADME, organism-based
Details: in vivo, read-out: Vdss
quantity.kind: Vd (L/kg)
Numbers only here, please. The scale is L/kg.

Task item: For the compound `Cc1cc2c(-c3ccc[nH]c3=O)c(C(=O)[O-])n(Cc3cc4ccccc4nc3Cl)c2cc1F.[Na+]` , report Vd.
Reply: 0.3

* * *

Target: Cytochrome P450 2D6 (Homo sapiens, UniProt P10635)
Sequence (P10635 whole entry): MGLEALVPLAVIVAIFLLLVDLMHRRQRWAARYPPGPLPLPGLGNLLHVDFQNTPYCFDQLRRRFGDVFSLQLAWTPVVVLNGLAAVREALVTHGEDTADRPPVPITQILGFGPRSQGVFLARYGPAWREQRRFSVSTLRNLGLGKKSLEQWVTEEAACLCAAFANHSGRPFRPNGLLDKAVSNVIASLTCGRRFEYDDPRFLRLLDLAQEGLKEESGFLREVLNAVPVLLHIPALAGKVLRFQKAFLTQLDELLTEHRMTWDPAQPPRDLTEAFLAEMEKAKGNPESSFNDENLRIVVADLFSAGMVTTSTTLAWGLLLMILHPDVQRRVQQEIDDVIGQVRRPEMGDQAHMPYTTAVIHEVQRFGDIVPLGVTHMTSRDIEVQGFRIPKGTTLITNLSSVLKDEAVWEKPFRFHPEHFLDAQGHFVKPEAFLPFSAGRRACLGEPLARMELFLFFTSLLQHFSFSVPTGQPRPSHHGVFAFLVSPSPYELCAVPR
Assay: Inhibition of CYP2D6 in human liver microsomes measured after compound pre-incubation
Assay type: ADME
quantity.kind: IC50

Task item: Fill in: IC50 on Cytochrome P450 2D6 (Homo sapiens, UniProt P10635), entry `Cc1cc2c(-c3ccc[nH]c3=O)c(C(=O)O)n(Cc3cc4ccccc4nc3Cl)c2cc1F`
Reply: > 50 µM

* * *

Test: Plasma protein binding in beagle dog
Format: ADME, cell-free, Canis lupus familiaris
Conditions: read-out: PPB (converted)
quantity.kind: fraction unbound
Please reply with the value in numeric form only.

Task item: # return recorded fraction unbound for entry `Cc1cc2c(-c3ccc[nH]c3=O)c(C(=O)[O-])n(Cc3cc4ccccc4nc3Cl)c2cc1F.[Na+]`
Reply: 0.004

* * *

Molecular target: UniProt P05177
Sequence (P05177 whole entry): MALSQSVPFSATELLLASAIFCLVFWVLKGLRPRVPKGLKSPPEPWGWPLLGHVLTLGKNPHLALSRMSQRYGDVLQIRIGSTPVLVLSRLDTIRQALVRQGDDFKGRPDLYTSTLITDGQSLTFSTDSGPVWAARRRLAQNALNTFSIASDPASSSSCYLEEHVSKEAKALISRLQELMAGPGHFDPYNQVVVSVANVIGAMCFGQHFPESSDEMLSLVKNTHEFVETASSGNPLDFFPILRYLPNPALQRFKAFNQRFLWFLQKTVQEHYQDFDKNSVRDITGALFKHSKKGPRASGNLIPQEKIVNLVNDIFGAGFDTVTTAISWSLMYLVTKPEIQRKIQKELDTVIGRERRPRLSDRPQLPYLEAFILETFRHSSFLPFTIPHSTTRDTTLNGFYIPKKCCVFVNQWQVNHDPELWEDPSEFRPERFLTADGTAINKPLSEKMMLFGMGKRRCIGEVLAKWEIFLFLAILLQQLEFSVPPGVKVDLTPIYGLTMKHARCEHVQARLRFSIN
Assay: Inhibition of CYP1A2 in human liver microsomes measured after concurrent incubation
Assay type: ADME
quantity.kind: IC50

Task item: Hello, please tell me recorded IC50 for this one: `Cc1cc2c(-c3ccc[nH]c3=O)c(C(=O)O)n(Cc3cc4ccccc4nc3Cl)c2cc1F`
Reply: > 50 µM

Reference source: ChEMBL document CHEMBL3091412
